Species: Rattus norvegicus
Experiment: Open TG-GATES - Regimen: Single
Format: toxicity, organism-based, Sprague-Dawley
Design: regimen Single, gender Male, age 6 weeks
Conditions: in vivo, po, 0 mg/kg, 24 h, tissue Plasma, route gavage, dose level Control
Parameter Measured: RALB (g/dL)
Give bare numbers, in g/dL.

These solved cases illustrate the format of a correct answer.
| Compound | RALB (g/dL) |
| --- | --- |
| CSc1ccc2c(c1)N(CCC1CCCCN1C)c1ccccc1S2 (stereo not drawn) [THIORIDAZINE] | 3.9 |
| NC(=O)N1c2ccccc2C=Cc2ccccc21 [CARBAMAZEPINE] | 3.4 |

Briefly, RALB measured for COc1ccc(Cc2nccc3cc(OC)c(OC)cc23)cc1OC [PAPAVERINE] : 3

----------
Species: Rattus norvegicus
Assay: Open TG-GATES - Regimen: Daily Repeat
Assay type: toxicity, organism-based, Sprague-Dawley
Set-up: regimen Daily Repeat, gender Male, age 6 weeks
Details: in vivo, po, 0 mg/kg, […], tissue Plasma, route gavage, dose level Control, time 14 day
Parameter Measured: CRE (mg/dL)
One number for each entry, in mg/dL.

| Compound | Unit String | CRE |
| --- | --- | --- |
| CCCC(CCC)C(=O)O [VALPROIC ACID] | mg/dL | 0.4 |

Hi, could you look up CRE for each item in my list?
1. O=C(O)c1cn(C2CC2)c2cc(N3CCNCC3)c(F)cc2c1=O [CIPROFLOXACIN]
2. CN(C)CCC=C1c2ccccc2CCc2ccccc21 [AMITRIPTYLINE]
3. CCc1cc(C(N)=S)ccn1 [ETHIONAMIDE]
4. NC(=O)N1c2ccccc2C=Cc2ccccc21 [CARBAMAZEPINE]
5. COc1ccc2c(c1)c(CC(=O)O)c(C)n2C(=O)c1ccc(Cl)cc1 [INDOMETHACIN]

result:
1: 0.6; 2: 0.2; 3: 0.5; 4: 0.5; 5: 0.6

----------
For each record, write down the corresponding Na.
Species on record: Rattus norvegicus
Experiment: Open TG-GATES - Regimen: Single
Format: toxicity, organism-based, Sprague-Dawley
Design: regimen Single, gender Male, age 6 weeks
Settings: in vivo, po, 300 mg/kg, 9 h, tissue Plasma, route gavage, dose level Middle
Answers are plain numbers, in meq/L.

Consider the worked cases shown below.
| Molecule | Unit String | Value |
| --- | --- | --- |
| O=C(O)c1cn(C2CC2)c2cc(N3CCNCC3)c(F)cc2c1=O | meq/L | 139.2 |
| C[C@H](CS)C(=O)N1CCC[C@H]1C(=O)O | meq/L | 139.6 |
| CCc1cc(C(N)=S)ccn1 [ETHIONAMIDE] | meq/L | 143 |
| O=C(O)c1cc(/N=N/c2ccc(S(=O)(=O)Nc3ccccn3)cc2)ccc1O | meq/L | 140.8 |

Could you now consider this next molecule?
GET /value?item= `Clc1ccccc1CN1CCc2sccc2C1` &field=Na returns 142

----------
Hi there, I'd appreciate the recorded PT for every entry that follows.
Species on record: Rattus norvegicus
Assay: Open TG-GATES - Regimen: Single
Type: toxicity, organism-based, Sprague-Dawley
Set-up: regimen Single, gender Male, age 6 weeks
Details: in vivo, po, 100 mg/kg, 3 h, tissue Blood, route gavage, dose level Low
Answers are plain numbers, in s.

Recorded PT, per entry:
| Compound | PT / s |
| --- | --- |
| CCc1cc(C(N)=S)ccn1 [ETHIONAMIDE] | 12.4 |
| Clc1ccccc1CN1CCc2sccc2C1 [TICLOPIDINE] | 12.2 |

Field: PT. Fill in for each record below.
1. C[C@H](CS)C(=O)N1CCC[C@H]1C(=O)O [CAPTOPRIL]
2. O=C(O)c1cn(C2CC2)c2cc(N3CCNCC3)c(F)cc2c1=O [CIPROFLOXACIN]
3. O=C(O)c1cc(/N=N/c2ccc(S(=O)(=O)Nc3ccccn3)cc2)ccc1O [SULFASALAZINE]

result:
1. 11.9
2. 12.3
3. 12.5

----------
Species on record: Rattus norvegicus
Assay: Open TG-GATES - Regimen: Daily Repeat
Format: toxicity, organism-based, Sprague-Dawley
Parameters: regimen Daily Repeat, gender Male, age 6 weeks
Conditions: in vivo, po, 0 mg/kg, […], tissue Plasma, route gavage, dose level Control, time 7 day
Parameter Measured: TBIL (mg/dL)
One number for each entry, in mg/dL.

// solved cases for TBIL follow
| Compound | Parameter Measured | Unit String | Value |
| --- | --- | --- | --- |
| O=C(O)c1cn(C2CC2)c2cc(N3CCNCC3)c(F)cc2c1=O [CIPROFLOXACIN] | TBIL | mg/dL | 0.3 |
| Clc1ccccc1CN1CCc2sccc2C1 [TICLOPIDINE] | TBIL | mg/dL | 0.1 |
| CCc1cc(C(N)=S)ccn1 [ETHIONAMIDE] | TBIL | mg/dL | 0.3 |
| CSc1ccc2c(c1)N(CCC1CCCCN1C)c1ccccc1S2 (stereo not given) [THIORIDAZINE] | TBIL | mg/dL | 0.3 |
| CN(C)CCC=C1c2ccccc2CCc2ccccc21 [AMITRIPTYLINE] | TBIL | mg/dL | 0.052 |

Provide each entry's TBIL from the list below.
1. NC(=O)N1c2ccccc2C=Cc2ccccc21 [CARBAMAZEPINE]
2. Cn1c(=O)c2[nH]cnc2n(C)c1=O.O [THEOPHYLLINE]
3. CO[C@H]1/C=C/O[C@@]2(C)Oc3c(C)c(O)c4c(O)c(c(/C=N/N5CCN(C)CC5)c(O)c4c3C2=O)NC(=O)/C(C)=C\C=C\[C@H](C)[C@H](O)[C@@H](C)[C@@H](O)[C@@H](C)[C@H](OC(C)=O)[C@@H]1C [RIFAMPIN]

result:
0.2
0
0.3

For each entry beneath this line, provide reported TBIL.
1. C[C@H](CS)C(=O)N1CCC[C@H]1C(=O)O [CAPTOPRIL]
2. CCCC(CCC)C(=O)O [VALPROIC ACID]

result:
0.3
0.1

----------
Species: Rattus norvegicus
Test: Open TG-GATES - Regimen: Daily Repeat
Type: toxicity, organism-based, Sprague-Dawley
Design: regimen Daily Repeat, gender Male, age 6 weeks
Settings: in vivo, po, 0 mg/kg, […], tissue Blood, route gavage, dose level Control, time 7 day
Parameter Measured: Bas (%)
Answers are plain numbers, in %.

| Molecule | Parameter Measured | Value |
| --- | --- | --- |
| CCCC(CCC)C(=O)O | Bas | 0 |
| O=C(O)c1cc(/N=N/c2ccc(S(=O)(=O)Nc3ccccn3)cc2)ccc1O | Bas | 0 |

Please state, for each entry, its recorded Bas.
1. CSc1ccc2c(c1)N(CCC1CCCCN1C)c1ccccc1S2 (stereo not given)
2. CO[C@H]1/C=C/O[C@@]2(C)Oc3c(C)c(O)c4c(O)c(c(/C=N/N5CCN(C)CC5)c(O)c4c3C2=O)NC(=O)/C(C)=C\C=C\[C@H](C)[C@H](O)[C@@H](C)[C@@H](O)[C@@H](C)[C@H](OC(C)=O)[C@@H]1C

result:
0
0

Provide the reported Bas of each entry below, same order.
1. CCc1cc(C(N)=S)ccn1 [ETHIONAMIDE]
2. COc1ccc2c(c1)c(CC(=O)O)c(C)n2C(=O)c1ccc(Cl)cc1
3. CC(=O)Oc1ccccc1C(=O)O
4. NC(=O)N1c2ccccc2C=Cc2ccccc21 [CARBAMAZEPINE]
5. O=C(O)c1cn(C2CC2)c2cc(N3CCNCC3)c(F)cc2c1=O
6. C[C@H](CS)C(=O)N1CCC[C@H]1C(=O)O

result:
1: 0; 2: 0; 3: 0; 4: 0; 5: 0; 6: 0

Okay, here is my list. What is Bas for each of these?
1. Clc1ccccc1CN1CCc2sccc2C1
2. CN(C)CCC=C1c2ccccc2CCc2ccccc21
3. NC(=O)N/N=C/c1ccc([N+](=O)[O-])o1
4. COc1ccc(Cc2nccc3cc(OC)c(OC)cc23)cc1OC
5. Cn1c(=O)c2[nH]cnc2n(C)c1=O.O

result:
1
0.6
0.2
0
0

----------
Give CRE for every item shown.
Species on record: Rattus norvegicus
Experiment: Open TG-GATES - Regimen: Single
Format: toxicity, organism-based, Sprague-Dawley
Set-up: regimen Single, gender Male, age 6 weeks
Settings: in vivo, po, 0 mg/kg, 24 h, tissue Plasma, route gavage, dose level Control
Answers are plain numbers, in mg/dL.

Check out these entries, answers already filled in.
| Given Smiles | CRE (mg/dL) |
| --- | --- |
| Clc1ccccc1CN1CCc2sccc2C1 | 0.4 |
| NC(=O)N/N=C/c1ccc([N+](=O)[O-])o1 | 0.2 |

CRE for `Cn1c(=O)c2[nH]cnc2n(C)c1=O.O` is 0.2
